// provenance: patent US11773078B2

# Measurement target: furin (endogenous protease) in U20S cells (Homo sapiens)
# Construct: the endogenous protease cleaves GFP; endogenous in cells; host or cells: U2OS cells transduced with a BacMam reporter
# Sequence (P09958 108-794): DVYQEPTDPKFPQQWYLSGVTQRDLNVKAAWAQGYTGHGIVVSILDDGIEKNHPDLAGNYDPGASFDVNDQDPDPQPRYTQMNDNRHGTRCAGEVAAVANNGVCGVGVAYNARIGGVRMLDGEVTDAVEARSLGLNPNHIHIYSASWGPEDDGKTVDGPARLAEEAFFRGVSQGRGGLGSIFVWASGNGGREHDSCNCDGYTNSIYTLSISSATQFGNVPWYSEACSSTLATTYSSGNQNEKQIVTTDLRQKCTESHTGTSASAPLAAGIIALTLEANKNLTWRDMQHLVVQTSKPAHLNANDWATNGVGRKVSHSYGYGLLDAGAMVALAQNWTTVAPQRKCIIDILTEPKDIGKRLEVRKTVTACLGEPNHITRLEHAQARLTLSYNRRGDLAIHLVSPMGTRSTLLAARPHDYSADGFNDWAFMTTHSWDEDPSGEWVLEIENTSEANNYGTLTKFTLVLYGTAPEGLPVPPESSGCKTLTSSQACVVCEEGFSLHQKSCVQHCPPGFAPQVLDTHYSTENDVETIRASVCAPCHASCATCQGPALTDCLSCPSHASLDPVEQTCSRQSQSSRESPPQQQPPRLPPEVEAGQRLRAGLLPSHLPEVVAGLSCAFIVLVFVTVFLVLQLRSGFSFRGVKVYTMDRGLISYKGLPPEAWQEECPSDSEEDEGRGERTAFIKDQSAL
# Procedure summary: Furin cell-based assay (image-based, Golgi-targeted GFP with BMP10 furin/PCSK cleavage site);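 note: Read-out is mean GFP fluorescence of Golgi puncta per cell by high-content imaging, retained when furin inhibited, over an eleven-point 0.00017–10 µM series, four-parameter fit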
# Condition set: 24-hour incubation, read-out: furin golgi cell pXC50 (converted)
Counter-ions that a name gives are not always drawn.
EC50 vs 60 nM: less than gives YES; not less than gives NO.

Solved cases (6 shown):
Identify whether the molecule "C[C@@H](O)CN1CCN(c2ncc(Oc3cc(CN4CCC(CC(=O)O)CC4)cc(-c4cc(Cl)cc(Cl)c4)n3)cn2)CC1" records EC50 below 60 nM.
YES

Identify whether the molecule CC(=O)NCC1CCN(Cc2cc(Oc3ccc(N4CCN(CCc5nnn[nH]5)CC4)nc3)nc(-c3cc(Cl)cc(Cl)c3)c2)CC1 [Example 14, hydrochloride] records EC50 below 60 nM.
NO

Identify whether the molecule NC(=O)OCCN1CCN(Cc2cc(Oc3cnc(N4CCN(CCC(=O)O)CC4)nc3)nc(-c3cc(Cl)cc(Cl)c3)c2)CC1 [Example 54, hydrochloride] records EC50 below 60 nM.
NO

Identify whether the molecule "NC(=O)CN1CCN(Cc2cc(Oc3cnc(N4CCN(CCC(=O)O)CC4)nc3)nc(-c3cc(Cl)cc(Cl)c3)c2)CC1" records EC50 below 60 nM.
NO

Identify whether the molecule "COC(=O)NC(=O)NCC1CCN(Cc2cc(Oc3cnc(N4CCN(C)CC4)nc3)nc(-c3cc(Cl)cc(Cl)c3)c2)CC1" records EC50 below 60 nM.
YES

Identify whether the molecule "CC(=O)NCC1CCN(Cc2cc(Oc3ccc(N4CCN(CCN)CC4)nc3)nc(-c3cc(Cl)cc(Cl)c3)c2)CC1" records EC50 below 60 nM.
YES

Consider the additional molecule presented here.
Identify whether the molecule "COC(=O)CCN1CCN(c2ncc(Oc3cc(CN4CCC(CNC(C)=O)CC4)cc(-c4cc(Cl)cc(Cl)c4)n3)cn2)CC1" records EC50 below 60 nM.
YES
